The entries below come with measured IC50 values attached.
Molecular target: BACE1 (Homo sapiens, UniProt P56817)
Sequence (P56817 46-501, species assumed): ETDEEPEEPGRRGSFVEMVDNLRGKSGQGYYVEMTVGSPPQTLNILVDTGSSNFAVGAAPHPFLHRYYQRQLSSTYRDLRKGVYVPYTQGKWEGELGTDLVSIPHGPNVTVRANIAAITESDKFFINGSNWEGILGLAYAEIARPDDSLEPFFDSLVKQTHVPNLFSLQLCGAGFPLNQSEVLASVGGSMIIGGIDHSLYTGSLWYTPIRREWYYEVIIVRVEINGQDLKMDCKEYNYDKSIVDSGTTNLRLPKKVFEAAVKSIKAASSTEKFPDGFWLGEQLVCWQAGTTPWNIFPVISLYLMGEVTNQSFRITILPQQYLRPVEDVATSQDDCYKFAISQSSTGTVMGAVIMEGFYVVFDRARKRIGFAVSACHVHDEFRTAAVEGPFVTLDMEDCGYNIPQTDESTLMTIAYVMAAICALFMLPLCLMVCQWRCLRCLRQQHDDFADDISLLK
Test: In Vitro BACE Cell-based Assay (HEK cell assay): Aβ40 in conditioned medium of cells stably expressing Amyloid Precursor Protein, sandwich ELISA
Settings: read-out: HEK cell assay

MOLECULAR_STRING: CC(C)(C)COc1cc2c(cc1F)[C@]1(COC(N)=N1)c1cc(-c3cncnc3)ccc1O2
METRIC_NAME: IC50
VALUE: > 5 µM

MOLECULAR_STRING: CC1(COc2ccc3c(c2)[C@@]2(COC(N)=N2)c2cc(-c4cccc(F)c4)cnc2O3)COC1
METRIC_NAME: IC50
VALUE: < 0.1 µM

Next compound, IC50 to be filled in.
Query string: Item NC1=N[C@@]2(CO1)c1cc(-c3cncnc3)ccc1Oc1cc(OCC(F)(F)F)c(F)cc12 has what recorded IC50?
Result string: > 5 µM

---

Parameter: IC50. Scope: all listed entries.
Biological target: BACE1 (Homo sapiens, UniProt P56817)
Assay: In Vitro Enzymatic BACE FRET (Fluorescence Resonance Energy Transfer) Assay
Type: biochemical
Conditions: Table IV, class symbols; read-out: BACE1 FRET assay

MOLECULAR_STRING: NC1=N[C@@]2(CO1)c1cc(-c3cccnc3)ccc1Oc1cnc(-c3cccnc3)cc12
IC50: < 100 nM

Query string: # query: IC50 of entry NC1=N[C@@]2(CO1)c1cc(C#CC3CC3)ccc1Oc1ncc(N3CCOCC3)cc12
Result string: < 100 nM

Query string: Reported IC50, molecule NC1=NC2(CO1)c1cc(-c3ccccc3)ccc1Oc1ccc(-c3ccccc3)cc12 : ____
Result string: < 100 nM

Query string: Look up IC50: NC1=N[C@]2(CO1)c1cc(-c3cccc(OC(F)(F)F)c3)ccc1Oc1ncccc12
Result string: 100 to 1000 nM

Query string: # IC50 lookup, item COC(C)(C)C#Cc1ccc2c(c1)[C@@]1(COC(N)=N1)c1cc(-c3ccc(C)cc3)cnc1O2
Result string: < 100 nM

Query string: Dear colleague, I am looking for the recorded IC50 of the following molecule: COc1ccc2c(c1)[C@]1(COC(N)=N1)c1cc(C#CC(C)(C)O)cnc1O2
Result string: > 5000 nM

Query string: Query (molecule): CC(C)(C)OC(=O)CCc1ccc2c(c1)[C@]1(COC(N)=N1)c1cc(-c3cncnc3)ccc1O2 ; field requested: IC50
Result string: 100 to 1000 nM

Query string: Look up IC50 for this molecule: NC1=N[C@@]2(CO1)c1ccccc1Oc1ccc(-c3cncnc3)cc12
Result string: 100 to 1000 nM

Query string: Return reported IC50; argument: COc1cncc(-c2ccc3c(c2)[C@@]2(COC(N)=N2)c2cc(C#CC(C)(C)C)cnc2O3)c1
Result string: < 100 nM

---

Items are presented alongside their recorded IC50.
Target: BACE1 (Homo sapiens, UniProt P56817)
Test: In Vitro BACE Cell-based Assay (HEK cell assay): Aβ40 in conditioned medium of cells stably expressing Amyloid Precursor Protein, sandwich ELISA
Details: Table 1; Aβ40, 24 h incubation; read-out: HEK cell assay

Guide cases for IC50, answers given:
MOLECULE: Cc1ccc2c(c1)Oc1ccc(-c3cccc(OC(F)(F)F)c3)cc1[C@]21COC(N)=N1
IC50: 1 to 5 µM
//
MOLECULE: Cc1ccc2c(c1)Oc1ccc(-c3cccc(Cl)c3F)cc1C21COC(N)=N1 (centres unmarked)
IC50: 1 to 5 µM
//
MOLECULE: COc1ccc2c(c1)C1(COC(N)=N1)c1cc(-c3cccc(Cl)c3F)ccc1O2 (centres unmarked)
IC50: > 5 µM
//
MOLECULE: COc1ccc2c(c1)C1(COC(N)=N1)c1cc(-c3cccc(OC)c3F)ccc1O2 (centres unmarked)
IC50: 1 to 5 µM
//
MOLECULE: COc1ccc2c(c1)C1(COC(N)=N1)c1cc(-c3cccnc3F)ccc1O2 (centres unmarked)
IC50: 1 to 5 µM

Query string: Requested read-out: IC50. Entry: COc1ccc2c(c1)C1(COC(N)=N1)c1cc(-c3cncnc3)ccc1O2 (centres unmarked)
Result string: 1 to 5 µM

Query string: For CCCOc1ccc2c(c1)[C@]1(COC(N)=N1)c1cc(-c3cncnc3)ccc1O2 , what is its reported IC50?
Result string: < 0.1 µM

Query string: Fill in: IC50 of COc1ccc(F)c(-c2ccc3c(c2)C2(COC(N)=N2)c2ccc(C)cc2O3)c1 (centres unmarked) is ___
Result string: 0.1 to 1 µM

Query string: What does the record list as IC50 for Cc1ccc2c(c1)Oc1ccc(Br)cc1C21COC(N)=N1 (centres unmarked) ?
Result string: > 5 µM

Query string: Requested read-out: IC50. Entry: COc1ccc2c(c1)C1(COC(N)=N1)c1cc(-c3ccccc3Cl)ccc1O2 (centres unmarked)
Result string: 1 to 5 µM

Query string: Which measured IC50 value corresponds to COc1ccc2c(c1)[C@]1(COC(N)=N1)c1cc(-c3cc(Cl)ccc3F)ccc1O2 ?
Result string: > 5 µM

---

Overview of reported pIC50 across a group of molecules:
Target: BACE1 (Homo sapiens)
Assay: In Vitro BACE Cell-based Assay (HEK cell assay): Aβ40 in conditioned medium of cells stably expressing Amyloid Precursor Protein, sandwich ELISA
Conditions: HEK cell-based assay, Aβ40 in conditioned medium, IC50 class symbols; read-out: HEK cell assay
pIC50: −log10 of the molar value.

MOLECULAR_STRING: CC(C)(C#N)COc1cnc2c(c1)[C@]1(COC(N)=N1)c1cc(-c3ccccc3F)ccc1O2
METRIC_NAME: pIC50
VALUE: > 7.00

MOLECULAR_STRING: CC1(COc2cnc3c(c2)[C@]2(COC(N)=N2)c2cc(-c4ccccc4Cl)ccc2O3)COC1
METRIC_NAME: pIC50
VALUE: 6.00 to 7.00

Next, consider the following molecule.
Query string: Which value of pIC50 has been reported for NC1=N[C@@]2(CO1)c1cc(-c3cccnc3F)ccc1Oc1ccc(C3CCOCC3)nc12 in the records?
Result string: > 7.00

---

Target: BACE1 (Homo sapiens, UniProt P56817)
Experiment: In Vitro Enzymatic BACE FRET (Fluorescence Resonance Energy Transfer) Assay
Assay type: biochemical
Conditions: Table IV, class symbols; read-out: BACE1 FRET assay
METRIC_NAME: IC50

COMPOUND: NC1=N[C@@]2(CO1)c1cc(Br)ccc1Oc1ccc(/C=C/C(=O)O)cc12 [compound 919]
IC50: 1000 to 5000 nM
//
COMPOUND: COc1ccc(-c2ccc3c(c2)[C@]2(COC(N)=N2)c2cc(-c4cncnc4)ccc2O3)cn1 [compound 829]
IC50: < 100 nM
//
COMPOUND: CC(C)(C)COc1ccc2c(c1)[C@]1(COC(N)=N1)c1cc(-c3cccc(S(C)(=O)=O)c3)ccc1O2 [compound 915]
IC50: < 100 nM

Now look at this one.
Query string: Which IC50 reading was recorded for the compound CC(=O)COc1ccc2c(c1)[C@]1(COC(N)=N1)c1cc(-c3cccnc3)ccc1O2 [compound 923] ?
Result string: < 100 nM

---

Target: BACE1 (Homo sapiens)
Assay: In Vitro BACE Cell-based Assay (HEK cell assay): Aβ40 in conditioned medium of cells stably expressing Amyloid Precursor Protein, sandwich ELISA
Conditions: read-out: HEK cell assay
Method: In Vitro BACE Cell-based Assay The cell-based assay measures inhibition or reduction of Aβ40 in conditioned medium of test compound treated cells expressing amyloid precursor protein. Cells stably expressing Amyloid Precursor Protein (APP) were plated at a density of 40K cells/well in 96 well plates (Costar). […] After 24 h of incubation with the test compounds the supernatant conditioned media was collected and the Aβ 40 levels were determined using a sandwich ELISA. […]
pIC50: −log10 of the molar value.
METRIC_NAME: pIC50

Observe how each entry below is paired with its result.
MOLECULAR_STRING: NC1=N[C@@]2(CO1)c1cc(-c3cccnc3)ccc1Oc1cnc(/C=C/C3CC3)cc12
pIC50: > 7.00
--
MOLECULAR_STRING: NC1=N[C@]2(CO1)c1cc(C#CC3(O)CCC3)ccc1Oc1ccc(-c3cccnc3)cc12
pIC50: > 7.00
--
MOLECULAR_STRING: CC(C)(C)COc1ccc2c(c1)[C@]1(COC(N)=N1)c1cc(C3=CCOCC3)ccc1O2
pIC50: 5.30 to 6.00

Query string: Notebook: pull reported pIC50 for BACE1 (Homo sapiens), entry CC(C)(C)COc1ccc2c(c1)[C@]1(COC(N)=N1)c1cc(-c3cccnc3)ncc1O2
Result string: 6.00 to 7.00

Query string: Hi! What's the reported pIC50 for COc1ccc2c(c1)[C@@]1(COC(N)=N1)c1cc(-c3ccc(OCC4CC4)nc3)cnc1O2 on BACE1 (Homo sapiens)?
Result string: 6.00 to 7.00

Query string: Record CC(C)(C)C#Cc1cnc2c(c1)[C@@]1(COC(N)=N1)c1cc(Oc3ccccn3)ccc1O2 : what is its pIC50 with BACE1 (Homo sapiens)?
Result string: 5.30 to 6.00

Query string: Field: pIC50 (BACE1 (Homo sapiens)). Entry: CC(C)(C)OC(=O)Cc1ccc2c(c1)[C@]1(COC(N)=N1)c1cc(Br)ccc1O2
Result string: < 5.30

Query string: Form field: pIC50 recorded for NC1=N[C@]2(CO1)c1cc(OC[C@@H](O)C(F)(F)F)ccc1Oc1ccc(-c3cccnc3)cc12 with BACE1 (Homo sapiens) (enter value)
Result string: 6.00 to 7.00

Query string: For the record CC(C)(C)OC(=O)Cc1ccc2c(c1)[C@]1(COC(N)=N1)c1cc(-c3cccnc3)ccc1O2 , what value of pIC50 is listed for BACE1 (Homo sapiens)?
Result string: 6.00 to 7.00

Query string: Look up pIC50 with BACE1 (Homo sapiens) for this compound: NC1=N[C@@]2(CO1)c1cc(-c3cncnc3)ccc1Oc1ccc(-c3ccc(F)nc3)cc12
Result string: > 7.00

Query string: Param readout = pIC50; param system = BACE1 (Homo sapiens); param query = NC1=N[C@@]2(CO1)c1cc(-c3cccnc3)ccc1Oc1cnc(C3CCCCC3)cc12 ; response: value
Result string: 6.00 to 7.00

Query string: For the record NC1=N[C@]2(CO1)c1cc(-c3ccc(F)cc3)ccc1Oc1ncc(C3=CCOCC3)cc12 , what value of pIC50 is listed for BACE1 (Homo sapiens)?
Result string: 5.30 to 6.00

Query string: Which pIC50 is reported with BACE1 (Homo sapiens) for this entry: CC1(COc2ccc3c(c2)[C@@]2(COC(N)=N2)c2cc(-c4ccc(F)cc4)cnc2O3)COC1 ?
Result string: > 7.00
